Data origin: ChEMBL document CHEMBL5154874

# Assay target: CYP1A2 (Homo sapiens, UniProt P05177)
# Sequence (P05177 whole entry): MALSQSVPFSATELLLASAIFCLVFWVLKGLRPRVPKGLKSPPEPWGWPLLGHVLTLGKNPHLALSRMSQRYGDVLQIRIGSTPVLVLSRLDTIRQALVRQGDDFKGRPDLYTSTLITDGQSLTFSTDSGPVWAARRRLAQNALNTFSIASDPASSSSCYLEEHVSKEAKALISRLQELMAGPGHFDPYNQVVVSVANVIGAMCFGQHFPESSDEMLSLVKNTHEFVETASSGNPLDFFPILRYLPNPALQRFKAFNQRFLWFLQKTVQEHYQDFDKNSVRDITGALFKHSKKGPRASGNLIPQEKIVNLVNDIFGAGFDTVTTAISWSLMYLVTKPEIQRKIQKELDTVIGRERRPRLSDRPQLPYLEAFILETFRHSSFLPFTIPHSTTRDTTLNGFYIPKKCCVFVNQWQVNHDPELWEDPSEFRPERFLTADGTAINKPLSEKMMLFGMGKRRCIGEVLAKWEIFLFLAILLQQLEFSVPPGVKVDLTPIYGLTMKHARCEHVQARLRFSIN
# Protocol notes: Inhibition of CYP1A2 in human liver microsomes at 10 uM incubated for 10 mins in presence of NADPH by LC-MS/MS analysis relative to control
# Format: ADME, Microsome
In this section, each of the compounds is paired with its reported inhibition at 10 min, 10 µM.
Please reply with the bare figure in % and do not write the unit itself.

Reference set (2 entries):
{"columns": ["Compound", "inhibition at 10 min, 10 µM, %"],
 "data": [
  ["N#Cc1ccc2[nH]cc(CCCCN3CCN(c4ccc5oc(C(N)=O)cc5c4)CC3)c2c1 [VILAZODONE]", 14.4],
  ["CCCCc1sc(C2CCN(CCCCc3cn(C)c4ccc(C#N)cc34)CC2)nc1-c1ccc(Oc2ccc(Cl)cc2)cc1", 17.2]
]}

Continue with the next compound.
Record CCCCc1nc(-c2ccc(OCCCN(CC)CC)cc2)cn1-c1ccc(Oc2ccc(Cl)cc2)cc1 [AZELIRAGON] . Reported inhibition at 10 min, 10 µM: 0

====

# Protocol notes: Clearance in mouse at 10 mg/kg, iv measured for 0.083 to 24 hrs
# Format: ADME, organism-based
# Condition parameters: in vivo, time 0.083-24 hrs
Quantity kind: clearance
The reply should read as a number followed by its unit.

Record CCCCc1sc(C2CCN(CCCCc3cn(C)c4ccc(C#N)cc34)CC2)nc1-c1ccc(Oc2ccc(Cl)cc2)cc1 . Reported clearance: 7.09 mL/min/kg

====

# Protocol notes: Metabolic stability in mouse liver microsomes assessed as clearance at 100 uM in presence of NADPH and measured for 5 to 60 mins by LC-MS/MS analysis
# Type: ADME, Microsome
# Condition parameters: time 5-60 min, read-out: CLH
Quantity kind: microsomal CLint at 100 µM (µL/min/mg)
Please reply with the bare figure in µL/min/mg and do not write the unit itself.

Reference set (2 entries):
{"columns": ["Smiles representation", "microsomal CLint at 100 µM (µL/min/mg)"],
 "data": [
  ["CCCCc1nc(-c2ccc(OCCCN(CC)CC)cc2)cn1-c1ccc(Oc2ccc(Cl)cc2)cc1", 14.9],
  ["CCCCc1sc(C2CCN(CCCCc3cn(C)c4ccc(C#N)cc34)CC2)nc1-c1ccc(Oc2ccc(Cl)cc2)cc1", 17.6]
]}

Record N#Cc1ccc2[nH]cc(CCCCN3CCN(c4ccc5oc(C(N)=O)cc5c4)CC3)c2c1 . Reported microsomal CLint at 100 µM: 49.3

====

# Protocol notes: Metabolic stability in mouse liver microsomes assessed as half life at 100 uM in presence of NADPH and measured for 5 to 60 mins by LC-MS/MS analysis
# Assay type: ADME, Microsome
# Condition parameters: time 5-60 min
Quantity kind: half-life at 100 µM (min)
Please reply with the bare figure in min and do not write the unit itself.

{"columns": ["Molecule", "Unit label", "half-life at 100 µM"],
 "data": [
  ["CCCCc1nc(-c2ccc(OCCCN(CC)CC)cc2)cn1-c1ccc(Oc2ccc(Cl)cc2)cc1 [AZELIRAGON]", "min", 93.2],
  ["CCCCc1sc(C2CCN(CCCCc3cn(C)c4ccc(C#N)cc34)CC2)nc1-c1ccc(Oc2ccc(Cl)cc2)cc1", "min", 78.7]
]}

Continue with the next molecule.
Record N#Cc1ccc2[nH]cc(CCCCN3CCN(c4ccc5oc(C(N)=O)cc5c4)CC3)c2c1 [VILAZODONE] . Reported half-life at 100 µM: 28.1

====

# Assay target: Voltage-gated inwardly rectifying potassium channel KCNH2 (Homo sapiens)
# Sequence (Q12809 whole entry): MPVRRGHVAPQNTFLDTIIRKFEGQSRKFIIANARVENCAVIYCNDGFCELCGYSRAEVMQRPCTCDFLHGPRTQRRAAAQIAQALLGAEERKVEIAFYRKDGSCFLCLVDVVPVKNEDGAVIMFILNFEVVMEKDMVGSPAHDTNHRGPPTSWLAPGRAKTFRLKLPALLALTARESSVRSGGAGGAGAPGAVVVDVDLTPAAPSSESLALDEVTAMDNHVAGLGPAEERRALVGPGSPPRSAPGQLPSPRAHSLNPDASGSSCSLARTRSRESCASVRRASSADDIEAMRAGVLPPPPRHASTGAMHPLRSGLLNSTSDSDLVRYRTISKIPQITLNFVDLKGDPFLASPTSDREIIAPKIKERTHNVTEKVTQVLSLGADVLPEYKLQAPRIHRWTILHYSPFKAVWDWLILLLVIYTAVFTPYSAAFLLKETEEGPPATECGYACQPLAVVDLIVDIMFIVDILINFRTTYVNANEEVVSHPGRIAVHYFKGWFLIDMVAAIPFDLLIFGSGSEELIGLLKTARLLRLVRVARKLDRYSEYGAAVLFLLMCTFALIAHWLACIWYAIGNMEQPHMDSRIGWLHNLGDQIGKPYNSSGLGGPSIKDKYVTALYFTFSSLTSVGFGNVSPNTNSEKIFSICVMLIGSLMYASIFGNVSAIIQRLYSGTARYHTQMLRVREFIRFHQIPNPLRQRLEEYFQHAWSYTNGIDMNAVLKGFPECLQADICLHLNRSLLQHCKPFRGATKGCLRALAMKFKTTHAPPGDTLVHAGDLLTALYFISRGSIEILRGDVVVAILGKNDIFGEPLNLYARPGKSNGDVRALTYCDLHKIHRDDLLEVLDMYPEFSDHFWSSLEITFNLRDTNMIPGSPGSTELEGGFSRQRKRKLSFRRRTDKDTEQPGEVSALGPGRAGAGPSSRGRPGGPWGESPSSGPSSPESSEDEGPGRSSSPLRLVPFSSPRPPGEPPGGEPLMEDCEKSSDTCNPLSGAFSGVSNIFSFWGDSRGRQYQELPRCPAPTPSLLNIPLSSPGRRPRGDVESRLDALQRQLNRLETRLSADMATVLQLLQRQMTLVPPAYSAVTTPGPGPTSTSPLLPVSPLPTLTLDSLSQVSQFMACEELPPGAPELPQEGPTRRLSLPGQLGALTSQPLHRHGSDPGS
# Protocol notes: Inhibition of hERG transfected in CHO cells by manual patch-clamp assay
Quantity kind: pIC50
Please keep in mind that pIC50 is minus log10 of the molar concentration; only the number is needed.

Record CCCCc1sc(C2CCN(CCCCc3cn(C)c4ccc(C#N)cc34)CC2)nc1-c1ccc(Oc2ccc(Cl)cc2)cc1 . Reported pIC50: 5.14

====

In this section, each of the molecules is paired with its reported inhibition at 10 min, 10 µM.
# Assay target: UniProtKB P11712
# Sequence (P11712 whole entry): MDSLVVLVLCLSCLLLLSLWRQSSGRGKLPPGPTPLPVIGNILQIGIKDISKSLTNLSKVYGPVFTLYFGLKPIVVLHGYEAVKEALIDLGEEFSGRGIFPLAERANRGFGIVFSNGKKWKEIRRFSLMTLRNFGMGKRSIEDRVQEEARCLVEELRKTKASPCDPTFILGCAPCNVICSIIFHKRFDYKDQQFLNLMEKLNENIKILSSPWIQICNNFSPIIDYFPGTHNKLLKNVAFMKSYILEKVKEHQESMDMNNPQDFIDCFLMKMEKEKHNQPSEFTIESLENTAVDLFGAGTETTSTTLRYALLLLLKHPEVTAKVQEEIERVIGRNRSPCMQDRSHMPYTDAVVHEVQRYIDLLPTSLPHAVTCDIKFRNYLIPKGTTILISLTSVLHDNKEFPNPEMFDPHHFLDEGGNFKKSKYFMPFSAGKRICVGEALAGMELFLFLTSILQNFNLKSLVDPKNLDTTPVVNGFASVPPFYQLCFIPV
# Protocol notes: Inhibition of CYP2C9 in human liver microsomes at 10 uM incubated for 10 mins in presence of NADPH by LC-MS/MS analysis relative to control
# Assay type: ADME, Microsome

Reference set (2 entries):
{"columns": ["Smiles representation", "inhibition at 10 min, 10 µM"],
 "data": [
  ["CCCCc1nc(-c2ccc(OCCCN(CC)CC)cc2)cn1-c1ccc(Oc2ccc(Cl)cc2)cc1", "3.7%"],
  ["N#Cc1ccc2[nH]cc(CCCCN3CCN(c4ccc5oc(C(N)=O)cc5c4)CC3)c2c1", "49.2%"]
]}

Continue with the next molecule.
Record CCCCc1sc(C2CCN(CCCCc3cn(C)c4ccc(C#N)cc34)CC2)nc1-c1ccc(Oc2ccc(Cl)cc2)cc1 . Reported inhibition at 10 min, 10 µM: 8.6%

====

pIC50 tested on Sodium-dependent serotonin transporter (Homo sapiens): recorded values
Sequence (P31645 whole entry): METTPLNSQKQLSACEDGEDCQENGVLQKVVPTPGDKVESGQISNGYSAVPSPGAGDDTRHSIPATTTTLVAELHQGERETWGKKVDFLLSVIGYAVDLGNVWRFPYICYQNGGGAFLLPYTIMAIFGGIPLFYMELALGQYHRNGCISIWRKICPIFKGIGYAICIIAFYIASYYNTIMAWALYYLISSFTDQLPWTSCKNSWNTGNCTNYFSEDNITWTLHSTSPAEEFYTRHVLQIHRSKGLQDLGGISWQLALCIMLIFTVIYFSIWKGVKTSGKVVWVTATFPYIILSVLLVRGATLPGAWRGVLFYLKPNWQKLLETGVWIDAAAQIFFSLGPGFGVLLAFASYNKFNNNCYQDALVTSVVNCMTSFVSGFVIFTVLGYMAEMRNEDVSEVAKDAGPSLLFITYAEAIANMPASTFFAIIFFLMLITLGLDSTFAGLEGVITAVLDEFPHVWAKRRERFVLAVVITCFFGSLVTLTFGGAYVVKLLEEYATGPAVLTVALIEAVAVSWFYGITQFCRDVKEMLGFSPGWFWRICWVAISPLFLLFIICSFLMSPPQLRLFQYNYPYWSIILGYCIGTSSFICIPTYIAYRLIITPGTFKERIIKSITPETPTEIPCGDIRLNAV
pIC50: −log10 of the molar value.

{"columns": ["Smiles representation", "Quantity kind", "Result"],
 "data": [
  ["CCCCc1sc(C2CCN(CCc3c[nH]c4ccc(C#N)cc34)CC2)nc1-c1ccc(Oc2ccc(Cl)cc2)cc1", "pIC50", "< 7.00"]
]}

Continue with the next compound.
Record CCCCc1nc(C2CCN(CCc3c[nH]c4ccc(C#N)cc34)CC2)cn1-c1ccc(Oc2ccc(Cl)cc2)cc1 . Reported pIC50: < 7.00

====

# System: SH-SY5Y
# Protocol notes: Cytotoxicity against human SH-SY5Y cells assessed as cell death at 5 uM incubated for 24 hrs by MTT assay
# Format: toxicity, cell-based
Quantity kind: Activity

{"columns": ["Smiles representation", "Result"],
 "data": [
  ["CCCCc1nc(-c2ccc(OCCCN(CC)CC)cc2)cn1-c1ccc(Oc2ccc(Cl)cc2)cc1", "Toxic"],
  ["CCCCc1nc(C2CCN(CCCCc3c[nH]c4ccc(C#N)cc34)CC2)cn1-c1ccc(Oc2ccc(Cl)cc2)cc1", "Toxic"],
  ["CCCCCc1nc(C2CCN(CCCCc3cn(C)c4ccc(C#N)cc34)CC2)cn1-c1ccc(Oc2ccc(Cl)cc2)cc1", "Toxic"]
]}

====

# Protocol notes: Volume of distribution at steady state in mouse at 10 mg/kg, iv measured for 0.083 to 24 hrs
# Format: ADME, organism-based
# Condition parameters: in vivo, time 0.083-24 hrs, read-out: Vdss
Quantity kind: Vd (L/kg)
Please reply with the bare figure in L/kg and do not write the unit itself.

Record CCCCc1sc(C2CCN(CCCCc3cn(C)c4ccc(C#N)cc34)CC2)nc1-c1ccc(Oc2ccc(Cl)cc2)cc1 . Reported Vd: 1.04

====

# Assay target: CYP3A4 (Homo sapiens, UniProt P08684)
# Sequence (P08684 whole entry): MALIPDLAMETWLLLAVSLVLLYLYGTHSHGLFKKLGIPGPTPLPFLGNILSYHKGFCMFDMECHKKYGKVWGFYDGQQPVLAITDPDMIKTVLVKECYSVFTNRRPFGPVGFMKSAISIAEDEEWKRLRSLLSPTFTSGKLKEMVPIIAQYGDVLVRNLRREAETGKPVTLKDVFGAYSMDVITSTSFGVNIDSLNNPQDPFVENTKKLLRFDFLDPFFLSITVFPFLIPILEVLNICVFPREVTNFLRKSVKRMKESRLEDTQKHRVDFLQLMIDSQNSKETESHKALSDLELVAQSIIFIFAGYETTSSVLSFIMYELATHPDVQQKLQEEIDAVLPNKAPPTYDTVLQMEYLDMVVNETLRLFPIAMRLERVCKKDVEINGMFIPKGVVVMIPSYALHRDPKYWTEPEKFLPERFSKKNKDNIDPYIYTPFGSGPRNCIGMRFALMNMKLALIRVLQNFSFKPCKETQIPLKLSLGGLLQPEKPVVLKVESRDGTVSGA
# Protocol notes: Inhibition of CYP3A4 in human liver microsomes at 10 uM incubated for 10 mins in presence of NADPH by LC-MS/MS analysis relative to control
# Type: ADME, Microsome
Quantity kind: inhibition at 10 min, 10 µM
The reply should read as a number followed by its unit.

Reference set (2 entries):
{"columns": ["Compound", "Quantity kind", "Result"],
 "data": [
  ["N#Cc1ccc2[nH]cc(CCCCN3CCN(c4ccc5oc(C(N)=O)cc5c4)CC3)c2c1 [VILAZODONE]", "inhibition at 10 min, 10 µM", "29%"],
  ["CCCCc1sc(C2CCN(CCCCc3cn(C)c4ccc(C#N)cc34)CC2)nc1-c1ccc(Oc2ccc(Cl)cc2)cc1", "inhibition at 10 min, 10 µM", "16.3%"]
]}

Continue with the next compound.
Record CCCCc1nc(-c2ccc(OCCCN(CC)CC)cc2)cn1-c1ccc(Oc2ccc(Cl)cc2)cc1 [AZELIRAGON] . Reported inhibition at 10 min, 10 µM: 0%

====

# Protocol notes: Toxicity in ICR mouse assessed as animal survival at 100 mg/kg, ip administered as single dose measured upto 2 weeks
# Format: organism-based
# Condition parameters: in vivo
Quantity kind: survival at 336 h (%)
Please reply with the bare figure in % and do not write the unit itself.

Record CCCCc1sc(C2CCN(CCCCc3cn(C)c4ccc(C#N)cc34)CC2)nc1-c1ccc(Oc2ccc(Cl)cc2)cc1 . Reported survival at 336 h: 100

====

# Protocol notes: Cytotoxicity against human SH-SY5Y cells assessed as cell viability at 20 uM incubated for 24 hrs by MTT assay relative to control
# Type: toxicity, cell-based
# Condition parameters: read-out: Activity
Quantity kind: viability at 24 h, 20 µM

Record CCCCc1sc(C2CCN(CCCCc3cn(C)c4ccc(C#N)cc34)CC2)nc1-c1ccc(Oc2ccc(Cl)cc2)cc1 . Reported viability at 24 h, 20 µM: > 80%
